Let's look at some molecules and their measured Urine Volume (% decrease).
Target: Vasopressin V2 (Rattus norvegicus, UniProt Q00788)
Sequence (Q00788 whole entry): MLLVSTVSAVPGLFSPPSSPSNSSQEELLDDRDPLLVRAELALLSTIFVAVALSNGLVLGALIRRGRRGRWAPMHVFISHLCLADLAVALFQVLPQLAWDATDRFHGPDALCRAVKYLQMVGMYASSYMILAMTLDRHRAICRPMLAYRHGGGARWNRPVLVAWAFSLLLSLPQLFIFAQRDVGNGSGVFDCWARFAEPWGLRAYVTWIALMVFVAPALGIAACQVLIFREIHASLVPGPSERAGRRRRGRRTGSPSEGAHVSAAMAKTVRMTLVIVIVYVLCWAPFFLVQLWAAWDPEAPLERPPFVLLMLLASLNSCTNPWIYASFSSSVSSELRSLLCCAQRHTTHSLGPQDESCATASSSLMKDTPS
Assay: Vasopressin V2 agonist effects in normal conscious water-loaded rats
Type: in vivo
Set-up: from tissue; host or cells: whole living Sprague-Dawley rat; the receptor is the animal's own (renal, by own knowledge)
Conditions: Sprague-Dawley (CD) rats, 10 mg/kg oral, vs. control, urine collected four hours
Report the value in % with no unit label.

These solved cases illustrate the format of a correct answer.
structure-as-smiles	units-symbol	measured
Cn1ccc(-c2ccc(C(=O)N3Cc4cccn4Cc4ccccc43)cc2)n1	%	87
Cc1ccn(-c2ccc(C(=O)N3Cc4ccc(CN(C)C)n4Cc4ccccc43)c(Cl)c2)n1	%	71
Cc1cn(-c2ccc(C(=O)N3Cc4cccn4Cc4ccccc43)c(Cl)c2)cn1	%	69

Ask: Which measured Urine Volume (% decrease) value corresponds to CCCC(=O)n1ccc(-c2ccc(C(=O)N3Cc4cccn4Cc4ccccc43)cc2)n1 ?
Reply: 68

Ask: Repeat for the following molecule: Cc1cnn(-c2ncc(C(=O)N3Cc4cccn4Cc4ccccc43)c(C(F)(F)F)n2)c1
Reply: 49

Ask: Repeat for the following molecule: COc1cc(-n2ccc(C)n2)ccc1C(=O)N1Cc2ccc(CN(C)C)n2Cc2ccccc21
Reply: 30

Ask: Repeat for the following molecule: Cc1ccn(-c2ccc(C(=O)N3Cc4ccc(C)n4Cc4ccccc43)c(Cl)c2)n1
Reply: 52

Ask: Repeat for the following molecule: O=C(c1ccc(F)cc1F)N1Cc2cccn2Cc2ccccc21
Reply: 22

Ask: Repeat for the following molecule: Cc1ccn(-c2ccc(C(=O)N3Cc4nnnn4Cc4ccccc43)c(Cl)c2)n1
Reply: 68
